Reported growth values are given for each entry in this list.
- System: SR leukemia
- assay protocol: NCI-60 one-dose screen, 48 h (100 = growth as untreated, 0 = no growth, -100 = all killed)
- cond: 10 µM unless noted
This is part of a sample that, as a whole, favours compounds with a hit. Of some 83,000 tested, about 20% had one in any assay.
// return numeric value only (unit: %, not printed)

Answered cases to consult:
COc1ccc(Cn2c(Br)c3c(c2Br)-c2nc(N)sc2CC3)cc1	4.13
NS(=O)(=O)c1ccc(CCN=C=S)cc1	9.82
COc1ccccc1CNC(=O)C1c2ccccc2C(=O)N(CC(C)C)C1c1cccs1 (stereo unspecified)	17.3

Prompt line: Please look at this compound and report its growth: Cc1ccc(NC2=CC(=O)C(=O)c3ccccc32)c(C)c1
Response line: 56.4
